Entries annotated with measured pKi
molecular target: serotonin transporter (Rattus norvegicus)
Sequence (P31652 whole entry): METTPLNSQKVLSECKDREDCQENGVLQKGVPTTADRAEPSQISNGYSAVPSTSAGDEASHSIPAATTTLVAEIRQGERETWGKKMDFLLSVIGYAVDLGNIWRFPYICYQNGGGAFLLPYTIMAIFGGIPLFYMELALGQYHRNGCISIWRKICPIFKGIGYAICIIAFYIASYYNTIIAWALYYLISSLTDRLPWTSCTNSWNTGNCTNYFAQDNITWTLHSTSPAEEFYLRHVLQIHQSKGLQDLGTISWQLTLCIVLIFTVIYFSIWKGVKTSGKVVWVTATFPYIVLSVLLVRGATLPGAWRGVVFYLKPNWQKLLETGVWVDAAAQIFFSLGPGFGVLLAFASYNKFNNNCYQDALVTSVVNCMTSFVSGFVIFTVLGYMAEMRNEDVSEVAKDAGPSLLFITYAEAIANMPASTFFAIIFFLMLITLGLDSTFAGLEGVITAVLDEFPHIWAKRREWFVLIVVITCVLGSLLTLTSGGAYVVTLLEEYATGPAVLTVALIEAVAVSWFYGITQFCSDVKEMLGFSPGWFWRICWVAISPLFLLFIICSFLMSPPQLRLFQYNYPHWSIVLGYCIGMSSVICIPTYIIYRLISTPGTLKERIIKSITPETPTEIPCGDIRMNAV
pKi: −log10 of the molar value.
MEASUREMENT KIND: pKi

>>> value_reported("O=c1[nH]c2cccc3c2n1C(CN1CC=C(c2c[nH]c4ccc(Cl)cc24)CC1)CO3 (stereo not drawn) [Example 3]")
7.82
>>> value_reported("O=c1[nH]c2cccc3c2n1C(CN1CC=C(c2c[nH]c4ccc(F)cc24)CC1)CO3 (stereo not drawn) [Example 2]")
8.68
>>> value_reported("N#Cc1ccc2[nH]cc(C3=CCN(CC4COc5cccc6[nH]c(=O)n4c56)CC3)c2c1 (stereo not drawn) [Example 4]")
8.45
>>> value_reported("Cc1nc2cccc3c2n1C(CN1CC=C(c2c[nH]c4ccccc24)CC1)CO3 (stereo not drawn) [Example 6]")
8.73
>>> value_reported("O=c1[nH]c2cccc3c2n1C(CN1CC=C(c2c[nH]c4c(F)cccc24)CC1)CO3 (stereo not drawn) [Example 5]")
8.91
>>> value_reported("O=c1[nH]c2cccc3c2n1C(CN1CC=C(c2c[nH]c4ccccc24)CC1)CO3 (stereo not drawn) [Example 1]")
8.97

###

Entries annotated with measured 5-HT1A Function (Imax), maximum inhibitory effect
biological target: cloned human 5-HT1A receptors (Homo sapiens, UniProt P08908); construct: expressed in transfected cells; experiment: 35S-GTPγS binding assay, antagonist activity at 5-HT1A receptors; format: biochemical; conditions: reversal of agonist 8-OHDPAT, value in parentheses
Sequence (P08908 whole entry): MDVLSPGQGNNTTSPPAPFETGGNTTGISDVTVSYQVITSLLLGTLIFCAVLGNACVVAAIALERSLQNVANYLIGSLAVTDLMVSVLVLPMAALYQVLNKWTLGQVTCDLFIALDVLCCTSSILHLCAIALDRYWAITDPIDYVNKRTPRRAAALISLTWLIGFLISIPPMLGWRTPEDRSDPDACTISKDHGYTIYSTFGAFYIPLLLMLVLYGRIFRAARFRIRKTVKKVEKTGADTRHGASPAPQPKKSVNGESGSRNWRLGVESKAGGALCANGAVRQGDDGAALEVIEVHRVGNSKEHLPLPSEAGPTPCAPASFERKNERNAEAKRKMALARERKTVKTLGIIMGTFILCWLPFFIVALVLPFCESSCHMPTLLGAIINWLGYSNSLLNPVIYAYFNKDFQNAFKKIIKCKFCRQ
MEASUREMENT KIND: 5-HT1A Function (Imax), maximum inhibitory effect

>>> value_reported("O=c1[nH]c2cccc3c2n1C(CN1CC=C(c2c[nH]c4c(F)cccc24)CC1)CO3 (stereo not drawn)")
100
>>> value_reported("N#Cc1ccc2[nH]cc(C3=CCN(CC4COc5cccc6[nH]c(=O)n4c56)CC3)c2c1 (stereo not drawn)")
100
>>> value_reported("Cc1nc2cccc3c2n1C(CN1CC=C(c2c[nH]c4ccccc24)CC1)CO3 (stereo not drawn)")
100
>>> value_reported("O=c1[nH]c2cccc3c2n1C(CN1CC=C(c2c[nH]c4ccccc24)CC1)CO3 (stereo not drawn)")
30
>>> value_reported("O=c1[nH]c2cccc3c2n1C(CN1CC=C(c2c[nH]c4ccc(Cl)cc24)CC1)CO3 (stereo not drawn)")
30
>>> value_reported("O=c1[nH]c2cccc3c2n1C(CN1CC=C(c2c[nH]c4ccc(F)cc24)CC1)CO3 (stereo not drawn)")
30

###

target: cloned human 5-HT1A receptors (Homo sapiens, UniProt P08908)
Entries annotated with measured IC50
MEASUREMENT KIND: IC50

>>> value_reported("Cc1nc2cccc3c2n1C(CN1CC=C(c2c[nH]c4ccccc24)CC1)CO3 (stereo not drawn)")
"0.45 µM"
>>> value_reported("O=c1[nH]c2cccc3c2n1C(CN1CC=C(c2c[nH]c4ccc(Cl)cc24)CC1)CO3 (stereo not drawn)")
"0.3 µM"
>>> value_reported("N#Cc1ccc2[nH]cc(C3=CCN(CC4COc5cccc6[nH]c(=O)n4c56)CC3)c2c1 (stereo not drawn)")
"0.75 µM"
>>> value_reported("O=c1[nH]c2cccc3c2n1C(CN1CC=C(c2c[nH]c4ccc(F)cc24)CC1)CO3 (stereo not drawn)")
"0.3 µM"
>>> value_reported("O=c1[nH]c2cccc3c2n1C(CN1CC=C(c2c[nH]c4ccccc24)CC1)CO3 (stereo not drawn)")
"0.3 µM"
>>> value_reported("O=c1[nH]c2cccc3c2n1C(CN1CC=C(c2c[nH]c4c(F)cccc24)CC1)CO3 (stereo not drawn)")
"0.75 µM"
